Recorded MIC by entry
Tested on: Staphylococcus aureus
METHOD_SUMMARY: Antibacterial activity against Staphylococcus aureus clinical isolate assessed as bacterial growth inhibition incubated for 20 hrs by CLSI based broth microdilution method
Format: functional
Report the figure in µg/mL without appending any unit label.

Some compounds with known MIC results, for comparison:
C[n+]1cc(-c2ccccc2)c(/C=C/c2ccc(N)cc2)cc1-c1ccccc1.[I-] | 16
COc1cc(/C=C/c2cc(-c3ccccc3)c[n+](C)c2-c2ccccc2)cc(OC)c1OC.[I-] | 16
C[n+]1cc(-c2ccccc2)cc(/C=C/c2ccc(C(F)(F)F)cc2)c1-c1ccccc1.[I-] | 2
CC(C)c1ccc(/C=C/c2cc(-c3ccccc3)c[n+](C)c2-c2ccccc2)cc1.[I-] | 0.5
C[n+]1cc(-c2ccccc2)c(/C=C/c2ccc(C(C)(C)C)cc2)cc1-c1ccc2ccccc2c1.[I-] | 0.5
C[n+]1cc(-c2ccccc2)c(/C=C/c2ccc(Cl)c(Cl)c2)cc1-c1ccc(C(C)(C)C)cc1.[I-] | 1

Entry `CCCCOc1ccc(/C=C/c2cc(-c3ccccc3)c[n+](C)c2-c2ccccc2)cc1.[I-]` ; assay system Staphylococcus aureus; MIC recorded at 1

Entry `CCCCCOc1ccc(/C=C/c2cc(-c3ccccc3)[n+](C)cc2-c2ccccc2)cc1.[I-]` ; assay system Staphylococcus aureus; MIC recorded at 0.5

Entry `CCc1ccc(/C=C/c2cc(-c3ccccc3)c[n+](C)c2-c2ccccc2)cc1.[I-]` ; assay system Staphylococcus aureus; MIC recorded at 2

###

Tested on: Staphylococcus aureus
METHOD_SUMMARY: Selectivity ratio of MBC for erythromycin-susceptible Staphylococcus aureus ATCC25923 to MIC for erythromycin-susceptible Staphylococcus aureus ATCC25923
Format: functional
Recorded Ratio by entry
Give the figure only, with no unit attached.

Reported Ratio ( `C[n+]1cc(-c2ccccc2)c(/C=C/c2ccc(N3CCCC3)cc2)cc1-c1ccc(C(C)(C)C)cc1.[I-]` ) = 8

Reported Ratio ( `Cc1ccccc1-c1c[n+](C)c(-c2ccc(C(C)(C)C)cc2)cc1/C=C/c1ccc(N(C)C)cc1.[I-]` ) = 2

Reported Ratio ( `Cc1ccccc1-c1c[n+](C)c(-c2ccc(C(C)(C)C)cc2)cc1/C=C/c1ccc(O)cc1.[I-]` ) = 32

###

Tested on: Escherichia coli
METHOD_SUMMARY: Antibacterial activity against penicillin-susceptible Escherichia coli ATCC25922 assessed as bacterial growth inhibition incubated for 20 hrs by CLSI based broth microdilution method
Format: functional
READOUT_LABEL: MIC (µg/mL)
Report the figure in µg/mL without appending any unit label.

Some compounds with known MIC results, for comparison:
C[n+]1cc(-c2ccccc2)c(/C=C/c2ccc(C(C)(C)C)cc2)cc1-c1ccccc1.[I-] | 8
C[n+]1cc(-c2ccccc2)cc(/C=C/c2ccc(Br)cc2)c1-c1ccccc1.[I-] | 64
CC(C)c1ccc(/C=C/c2cc(-c3ccc4ccccc4c3)[n+](C)cc2-c2ccccc2)cc1.[I-] | 64
CCc1ccc(/C=C/c2cc(-c3ccc(C(C)(C)C)cc3)[n+](C)cc2-c2ccccc2C)cc1.[I-] | 4

Reported MIC ( `C[n+]1cc(-c2ccccc2)c(/C=C/c2ccc(N)cc2)cc1-c1ccc(C(C)(C)C)cc1.[I-]` ) = 16

Reported MIC ( `CCCOc1ccc(/C=C/c2cc(-c3ccc(C(C)(C)C)cc3)[n+](C)cc2-c2ccccc2)cc1.[I-]` ) = 4

Reported MIC ( `C[n+]1cc(-c2ccccc2)c(/C=C/c2ccc(N3CCCC3)cc2)cc1-c1ccc(C(C)(C)C)cc1.[I-]` ) = 8

Reported MIC ( `C[n+]1cc(-c2ccccc2)c(/C=C/c2ccc(C(C)(C)C)cc2)cc1-c1ccc2ccccc2c1.[I-]` ) = 64

Reported MIC ( `C[n+]1cc(-c2ccccc2)cc(/C=C/c2ccc(Cl)cc2)c1-c1ccccc1.[I-]` ) = 64

Reported MIC ( `CC[C@H]1OC(=O)[C@H](C)[C@@H](O[C@H]2C[C@@](C)(OC)[C@@H](O)[C@H](C)O2)[C@H](C)[C@@H](O[C@@H]2O[C@H](C)C[C@H](N(C)C)[C@H]2O)[C@](C)(O)C[C@@H](C)CN(C)[C@H](C)[C@@H](O)[C@]1(C)O` ) = 64

Reported MIC ( `C[n+]1cc(-c2ccccc2)c(/C=C/c2ccc(N3CCCCC3)cc2)cc1-c1ccc(C(C)(C)C)cc1.[I-]` ) = 64

###

Recorded MIC by entry
System: Enterococcus faecium
METHOD_SUMMARY: Antibacterial activity against vancomycin-resistant Enterococcus faecium ATCC51559 assessed as bacterial growth inhibition incubated for 20 hrs by CLSI based broth microdilution method
Assay type: functional
Report the figure in µg/mL without appending any unit label.

C[n+]1cc(-c2ccccc2)c(/C=C/c2ccc(C(C)(C)C)cc2)cc1-c1ccc2ccccc2c1.[I-] | 2
COc1ccc(/C=C/c2cc(-c3ccccc3)c[n+](C)c2-c2ccccc2)cc1.[I-] | 64
CC(C)c1ccc(/C=C/c2cc(-c3ccc(C(C)(C)C)cc3)[n+](C)cc2-c2ccccc2)cc1.[I-] | 1
CCCOc1ccc(/C=C/c2cc(-c3ccccc3)c[n+](C)c2-c2ccccc2)cc1.[I-] | 8

With those in mind, consider the next compound.
Reported MIC ( `CC(C)c1ccc(/C=C/c2cc(-c3ccc4ccccc4c3)[n+](C)cc2-c2ccccc2)cc1.[I-]` ) = 2

###

Test system: Escherichia coli
METHOD_SUMMARY: Antibacterial activity against penicillin-susceptible Escherichia coli ATCC25922 assessed as bacterial growth inhibition incubated for 20 hrs by CLSI based broth microdilution method
Format: functional
Recorded log10(MIC) by entry
Scale: log10; quantity: MIC; unit before log: µg/mL

CC1(C)S[C@@H]2[C@H](NC(=O)[C@H](NC(=O)N3CCN(S(C)(=O)=O)C3=O)c3ccccc3)C(=O)N2[C@H]1C(=O)O [MEZLOCILLIN] | 0.00
C[n+]1cc2c3c(ccc2c2ccc4cc5c(cc4c21)OCO5)OCO3 | 1.51
Cc1ccccc1-c1c[n+](C)c(-c2ccc(C(C)(C)C)cc2)cc1/C=C/c1ccc(N(C)C)cc1.[I-] | 0.60

Reported log10(MIC) ( `CN(C)c1ccc(/C=C/c2cc(-c3ccccc3)[n+](C)cc2-c2ccccc2)cc1.[I-]` ) = 1.51

Reported log10(MIC) ( `C[n+]1cc(-c2ccccc2)c(/C=C/c2ccc(F)cc2)cc1-c1ccccc1.[I-]` ) = 0.90

Reported log10(MIC) ( `Cc1ccccc1-c1c[n+](C)c(-c2ccc(C(C)(C)C)cc2)cc1/C=C/c1ccc(F)cc1.[I-]` ) = 0.90

Reported log10(MIC) ( CN(C)[C@@H]1C(O)=C(C(N)=O)C(=O)[C@@]2(O)C(O)=C3C(=O)c4c(O)cccc4[C@@](C)(O)[C@H]3C[C@@H]12 [TETRACYCLINE] ) = -0.30

Reported log10(MIC) ( `C[n+]1cc(-c2ccccc2)c(/C=C/c2ccc(N3CCCC3)cc2)cc1-c1ccc2ccccc2c1.[I-]` ) = 1.81

Reported log10(MIC) ( `CCCCCCOc1ccc(/C=C/c2cc(-c3ccccc3)c[n+](C)c2-c2ccccc2)cc1.[I-]` ) = 0.90

Reported log10(MIC) ( `C[n+]1cc(-c2ccccc2)c(/C=C/c2ccc(C(C)(C)C)cc2)cc1-c1ccc(C(C)(C)C)cc1.[I-]` ) = 0.60

Reported log10(MIC) ( `C[n+]1cc(-c2ccccc2)cc(/C=C/c2ccc(C(C)(C)C)cc2)c1-c1ccccc1.[I-]` ) = 1.20

Reported log10(MIC) ( `CCCCCOc1ccc(/C=C/c2cc(-c3ccccc3)[n+](C)cc2-c2ccccc2)cc1.[I-]` ) = 0.60

Reported log10(MIC) ( `Cc1ccc(/C=C/c2cc(-c3ccc(C(C)(C)C)cc3)[n+](C)cc2-c2ccccc2C)cc1.[I-]` ) = 0.90

###

System: Staphylococcus aureus
METHOD_SUMMARY: Antibacterial activity against Staphylococcus aureus clinical isolate assessed as bacterial growth inhibition incubated for 20 hrs by CLSI based broth microdilution method
Format: functional
READOUT_LABEL: MIC
Your reply should be a number followed by the unit it is expressed in.

Some compounds with known MIC results, for comparison:
Cc1ccccc1-c1c[n+](C)c(-c2ccc(C(C)(C)C)cc2)cc1/C=C/c1ccc(F)cc1.[I-] | 0.25 mg/L
C[n+]1cc(-c2ccccc2)c(/C=C/c2ccc(N3CCCCC3)cc2)cc1-c1ccc(C(C)(C)C)cc1.[I-] | 0.5 mg/L
C[n+]1cc(-c2ccccc2)c(/C=C/c2ccc(N3CCCCC3)cc2)cc1-c1ccc2ccccc2c1.[I-] | 0.5 mg/L

With those in mind, consider the next compound.
Reported MIC ( `CN(C)c1ccc(/C=C/c2cc(-c3ccc(C(C)(C)C)cc3)[n+](C)cc2-c2ccccc2)cc1.[I-]` ) = 0.125 mg/L
